# assay system: D(2) dopamine receptor (Homo sapiens)
metric: Ki (nM)
Expressed in nM, but write only the number.

*Q* What does the data say about its Ki? Entry: CN1C(=O)c2ccccc2[S@+]([O-])c2ccc(C(=O)NCc3cccnc3)cc21
*A* 310

*Q* Repeat for the following compound: CN1C(=O)c2ccccc2[S+]([O-])c2ccc(C(=O)NCCc3cccs3)cc21 (racemic)
*A* 190

*Q* Proceed to CCN1C(=O)c2ccccc2[S@+]([O-])c2ccc(C(=O)NCc3ccc(F)cc3)cc21
*A* 90

*Q* Ok, now CCN1C(=O)c2ccccc2[S@+]([O-])c2ccc(C(=O)N[C@H](C)c3ccc4ccccc4c3)cc21
*A* 290

---

# assay system: D(3) dopamine receptor (Homo sapiens, UniProt P35462)
# Sequence (P35462 whole entry): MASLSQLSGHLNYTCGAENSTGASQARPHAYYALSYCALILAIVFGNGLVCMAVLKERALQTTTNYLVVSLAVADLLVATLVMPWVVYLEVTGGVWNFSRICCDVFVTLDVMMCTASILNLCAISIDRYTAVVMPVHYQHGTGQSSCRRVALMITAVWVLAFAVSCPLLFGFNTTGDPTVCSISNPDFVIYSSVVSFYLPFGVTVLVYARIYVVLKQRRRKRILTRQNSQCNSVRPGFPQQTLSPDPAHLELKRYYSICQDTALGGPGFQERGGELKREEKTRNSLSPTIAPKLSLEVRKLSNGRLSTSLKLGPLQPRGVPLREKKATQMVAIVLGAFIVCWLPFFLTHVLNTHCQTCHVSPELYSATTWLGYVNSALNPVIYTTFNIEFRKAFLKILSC
pKi: −log10 of the molar value.
Each entry gets not fulfilled if its pKi stays under 6, and fulfilled if its pKi is 6 or above.

*Q* Check the entry CN1C(=O)c2ccccc2[S@+]([O-])c2ccc(C(=O)NCCN3CCCC3)cc21 : does pKi equal or exceed 6?
*A* fulfilled

*Q* Request: CCN1C(=O)c2ccccc2[S@+]([O-])c2ccc(C(=O)NCc3ccc(C#N)cc3)cc21
*A* fulfilled

*Q* # repeat for CN1C(=O)c2ccccc2[S+]([O-])c2ccc(C(=O)NCCc3cccs3)cc21 (racemic)
*A* not fulfilled

*Q* Let us now turn to CCN1C(=O)c2ccccc2[S@+]([O-])c2ccc(C(=O)N[C@H](C)c3ccc4ccccc4c3)cc21
*A* not fulfilled

*Q* Repeat for the following molecule: CN1C(=O)c2ccccc2[S@+]([O-])c2ccc(C(=O)NCCc3cccs3)cc21
*A* not fulfilled

*Q* Now the molecule CN1C(=O)c2ccccc2[S@@+]([O-])c2ccc(C(=O)NCCc3cccs3)cc21
*A* not fulfilled

*Q* Same again, this time with CN1C(=O)c2ccccc2[S@+]([O-])c2ccc(C(=O)NCc3cccnc3)cc21
*A* not fulfilled

---

Kindly state AC50 for each of the entries shown.
# assay system: D(3) dopamine receptor (Homo sapiens, UniProt P35462)
# protocol summary: Antagonist activity at ProLink-tagged D3 receptor (unknown origin) expressed in CHO cells assessed as inhibition of dopamine-stimulated beta-arrestin binding treated for 90 mins prior to dopamine challenge by PathHunter DiscoveRx assay
# Format: cell-based
The reply should contain only the number, in µM.

*Q* What value of AC50 on D(3) dopamine receptor (Homo sapiens, UniProt P35462) does CN1C(=O)c2ccccc2[S@+]([O-])c2ccc(C(=O)NCc3ccc(Br)cc3)cc21 have?
*A* 4.57

*Q* Could you do the same for CN1C(=O)c2ccccc2[S@+]([O-])c2ccc(C(=O)NCCN3CCCC3)cc21 , please?
*A* 4.57

*Q* // same read-out, input: CN1C(=O)c2ccccc2[S@+]([O-])c2ccc(C(=O)NCc3cccnc3)cc21
*A* 14.5

*Q* What about CCN1C(=O)c2ccccc2[S@+]([O-])c2ccc(C(=O)NCc3ccc(F)cc3)cc21 ?
*A* 3.24

---

# assay system: D(2) dopamine receptor (Homo sapiens, UniProt P14416)
# Sequence (P14416 whole entry): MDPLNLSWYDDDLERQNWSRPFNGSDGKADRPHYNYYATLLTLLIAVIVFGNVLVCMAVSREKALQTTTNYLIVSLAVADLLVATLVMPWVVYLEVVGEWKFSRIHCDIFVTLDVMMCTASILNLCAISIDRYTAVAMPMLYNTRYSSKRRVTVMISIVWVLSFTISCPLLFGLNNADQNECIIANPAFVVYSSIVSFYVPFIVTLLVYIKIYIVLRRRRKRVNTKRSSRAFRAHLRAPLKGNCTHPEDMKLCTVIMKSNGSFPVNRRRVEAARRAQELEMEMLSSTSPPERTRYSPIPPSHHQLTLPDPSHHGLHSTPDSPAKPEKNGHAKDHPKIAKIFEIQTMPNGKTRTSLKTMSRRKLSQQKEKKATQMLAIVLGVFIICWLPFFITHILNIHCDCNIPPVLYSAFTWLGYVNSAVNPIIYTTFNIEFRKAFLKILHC
# protocol summary: Antagonist activity at ProLink-tagged D2 receptor (unknown origin) expressed in CHO cells assessed as inhibition of dopamine-stimulated beta-arrestin binding treated for 90 mins prior to dopamine challenge by PathHunter DiscoveRx assay
# Assay type: cell-based
metric: log10 of AC50 (log10 of the value in nM)
Field: value | Transform: log10 | Quantity: AC50 | Unit: nM

*Q* Fill blank: measured log10 of AC50 of the molecule CCN1C(=O)c2ccccc2[S@+]([O-])c2ccc(C(=O)NCc3ccc(F)cc3)cc21 is ____.
*A* 2.76

*Q* Another molecule to look at: CCN1C(=O)c2ccccc2[S@+]([O-])c2ccc(C(=O)NCc3ccc(C#N)cc3)cc21
*A* 2.41

*Q* Moving on to the next molecule: CN1C(=O)c2ccccc2[S@+]([O-])c2ccc(C(=O)NCCN3CCCC3)cc21
*A* 2.56

*Q* Param item: CN1C(=O)c2ccccc2[S+]([O-])c2ccc(C(=O)NCCc3cccs3)cc21 (racemic)
*A* 2.96

*Q* What about CCN1C(=O)c2ccccc2[S@+]([O-])c2ccc(C(=O)N[C@H](C)c3ccc4ccccc4c3)cc21 ?
*A* 3.46

*Q* How about CCN1C(=O)c2ccccc2[S@+]([O-])c2ccc(C(=O)N[C@H](C)c3ccc(Br)cc3)cc21 ?
*A* 3.11

*Q* Similarly, CN1C(=O)c2ccccc2[S@+]([O-])c2ccc(C(=O)NCc3cccnc3)cc21 ?
*A* 3.46

*Q* Same read-out for CN1C(=O)c2ccccc2[S@+]([O-])c2ccc(C(=O)NCc3ccc(Cl)cc3)cc21 ?
*A* 3.46

*Q* Check CN1C(=O)c2ccccc2[S@+]([O-])c2ccc(C(=O)NCc3ccc(Br)cc3)cc21 too.
*A* 3.01

---

# Test system: Caco-2
# protocol summary: Apparent permeability from basolateral to apical side in human Caco2 cells
# Assay type: ADME, cell-based
metric: Papp (×10⁻⁶ cm/s)
State just the number; it will be interpreted in ×10⁻⁶ cm/s.

*Q* Papp lookup needed for CN1C(=O)c2ccccc2[S@+]([O-])c2ccc(C(=O)NCCc3cccs3)cc21 , thanks.
*A* 23.8

---

# Tested on: Caco-2
# protocol summary: Apparent permeability from apical to basolateral side in human Caco2 cells
# Type: ADME, cell-based
metric: Papp (×10⁻⁶ cm/s)
# value in ×10⁻⁶ cm/s; strip the unit string

*Q* Record request: Papp value, item CN1C(=O)c2ccccc2[S@+]([O-])c2ccc(C(=O)NCCc3cccs3)cc21
*A* 18.8

---

# assay system: D(3) dopamine receptor (Homo sapiens)
# protocol summary: Antagonist activity at ProLink-tagged D3 receptor (unknown origin) expressed in CHO cells assessed as inhibition of dopamine-stimulated beta-arrestin binding treated for 90 mins prior to dopamine challenge by PathHunter DiscoveRx assay
# Assay type: cell-based
Lab note - cut at 9 µM for AC50: True if strictly below, False if not.

*Q* State whether 9 µM exceeds AC50 recorded for CN1C(=O)c2ccccc2[S@+]([O-])c2ccc(C(=O)NCc3ccc(Cl)cc3)cc21 .
*A* False

*Q* Would you mind doing CCN1C(=O)c2ccccc2[S@+]([O-])c2ccc(C(=O)N[C@H](C)c3ccc4ccccc4c3)cc21 as well?
*A* False

*Q* Note, next up: CCN1C(=O)c2ccccc2[S@+]([O-])c2ccc(C(=O)NCc3ccc(C#N)cc3)cc21
*A* True

*Q* Here is the next molecule: CN1C(=O)c2ccccc2[S+]([O-])c2ccc(C(=O)NCCc3cccs3)cc21 (racemic)
*A* False

---

# assay system: D(2) dopamine receptor (Homo sapiens, UniProt P14416)
# protocol summary: Antagonist activity at D2 receptor (unknown origin) expressed in Flp-In TREx 293 cells coexpressing chimeric Gqi5 protein assessed as calcium accumulation by Fluo-8AM dye based fluorescence analysis
# Type: functional, cell-based
Range-based classes on measured AC50: small value: < 200 nM; mid value: ≥ 200 nM and < 400 nM; large value: ≥ 400 nM

*Q* Band for the recorded AC50 of CCN1C(=O)c2ccccc2[S+]([O-])c2ccc(C(=O)NCc3ccccc3)cc21 (racemic) ?
*A* large value

*Q* Here is the next compound: CCN1C(=O)c2ccccc2[S+]([O-])c2ccc(C(=O)NCc3ccc(C(C)(C)C)cc3)cc21 (racemic)
*A* mid value

*Q* Now this one: CCN1C(=O)c2ccccc2[S+]([O-])c2ccc(C(=O)NCc3ccc(F)cc3)cc21 (racemic)
*A* small value

*Q* Likewise for CN1C(=O)c2ccccc2[S+]([O-])c2ccc(C(=O)NCCN3CCCCC3)cc21 (racemic) ?
*A* small value

*Q* Thanks! And CN1C(=O)c2ccccc2[S@+]([O-])c2ccc(C(=O)NCc3cccnc3)cc21 ?
*A* large value

*Q* Please answer likewise for CCN1C(=O)c2ccccc2[S+]([O-])c2ccc(C(=O)NCc3ccc(C)cc3)cc21 (racemic)
*A* small value

*Q* Note, next up: CCN1C(=O)c2ccccc2[S+]([O-])c2ccc(C(=O)NCc3ccc(Cl)cc3)cc21 (racemic)
*A* large value

*Q* Next compound up: CN1C(=O)c2ccccc2[S+]([O-])c2ccc(C(=O)NCc3cccc(Cl)c3)cc21 (racemic)
*A* mid value

*Q* Moving on to the next compound: CN1C(=O)c2ccccc2[S@@+]([O-])c2ccc(C(=O)NCCc3cccs3)cc21
*A* large value

*Q* Next compound up: CN1C(=O)c2ccccc2[S+]([O-])c2ccc(C(=O)NCc3cccnc3)cc21 (racemic)
*A* mid value

*Q* Field entry: COc1ccc(CNC(=O)c2ccc3c(c2)C(=O)c2ccccc2C3=O)cc1
*A* large value

*Q* Further, for CCN1C(=O)c2ccccc2[S+]([O-])c2ccc(NC(=O)Cc3ccc(F)cc3)cc21 (racemic) ?
*A* mid value

*Q* Same question, CCN1C(=O)c2ccccc2[S+]([O-])c2ccc(C(=O)NCc3ccc(SC)cc3)cc21 (racemic) this time
*A* mid value

*Q* Follow-up entry: CCN1C(=O)c2ccccc2[S@+]([O-])c2ccc(C(=O)NCc3ccc(F)cc3)cc21
*A* small value

*Q* Thanks! And CN1C(=O)c2ccccc2[S+]([O-])c2ccc(C(=O)NCc3ccccc3)cc21 (racemic) ?
*A* mid value

*Q* Also check CCN1C(=O)c2ccccc2[S+]([O-])c2ccc(C(=O)NCc3cc(OC)c(OC)c(OC)c3)cc21 (racemic)
*A* large value

*Q* Moving on to the next compound: CN1C(=O)c2ccccc2[S@+]([O-])c2ccc(C(=O)NCc3ccc(Cl)cc3)cc21
*A* mid value

*Q* Next record, please: CN1C(=O)c2ccccc2[S+]([O-])c2ccc(C(=O)Nc3ccccc3)cc21 (racemic)
*A* large value

*Q* Now this one: CCN1C(=O)c2ccccc2[S+]([O-])c2ccc(C(=O)NCc3ccc(S(C)(=O)=O)cc3)cc21 (racemic)
*A* mid value

*Q* Same question for CCN1C(=O)c2ccccc2S(=O)(=O)c2ccc(C(=O)NCc3ccc(OC)cc3)cc21 please.
*A* large value

*Q* Quick one: CN1C(=O)c2ccccc2[S+]([O-])c2ccc(C(=O)NCc3ccc(Br)cc3)cc21 (racemic)
*A* small value

*Q* CCN1C(=O)c2ccccc2[S+]([O-])c2ccc(C(=O)OCc3ccc(OC)cc3)cc21 (racemic) , same question.
*A* large value

*Q* Now consider CN1C(=O)c2ccccc2[S@+]([O-])c2ccc(C(=O)NCCN3CCCC3)cc21 and answer again.
*A* small value

*Q* Note, next up: CCN1C(=O)c2ccccc2[S+]([O-])c2ccc(C(=O)NCc3ccc(C#N)cc3)cc21 (racemic)
*A* small value

*Q* Now consider CCN1C(=O)c2ccccc2[S+]([O-])c2ccc(NC(=O)Cc3ccc(OC)cc3)cc21 (racemic) and answer again.
*A* large value

*Q* Would you kindly repeat that for CCN1C(=O)c2ccccc2[S+]([O-])c2ccc(C(=O)NCc3ccc4c(c3)OCO4)cc21 (racemic) ?
*A* mid value

*Q* Record: COc1ccc(CNC(=O)c2ccc3c(c2)N(C)C(=O)c2ccccc2[S+]3[O-])cc1 (racemic)
*A* small value

*Q* Request: CCN1C(=O)c2ccccc2[S+]([O-])c2ccc(C(=O)N(C)Cc3ccc(OC)cc3)cc21 (racemic)
*A* large value

*Q* Here is the next compound: CCN1C(=O)c2ccccc2[S+]([O-])c2ccc(C(=O)NCc3cccc(OC)c3)cc21 (racemic)
*A* small value

*Q* One more compound: COc1ccc(CNC(=O)c2ccc3c(c2)NC(=O)c2ccccc2[S+]3[O-])cc1 (racemic)
*A* large value

*Q* Entry to check: CCN1C(=O)c2ccccc2[S+]([O-])c2ccc(C(=O)NCc3ccccc3OC)cc21 (racemic)
*A* large value

*Q* Do the same for CCN(Cc1ccccc1)C(=O)c1ccc2c(c1)N(CC)C(=O)c1ccccc1[S+]2[O-] (racemic) please
*A* large value

*Q* Okay, and CCN1C(=O)c2ccccc2[S+]([O-])c2ccc(C(=O)NC(C)c3ccccc3)cc21 (racemic) ?
*A* large value

*Q* Next compound up: CCN1C(=O)c2ccccc2[S+]([O-])c2ccc(C(=O)NCc3ccc(C(F)(F)F)cc3)cc21 (racemic)
*A* small value
